Known IC50 of a selection of molecules
- System: H929 multiple myeloma tumour line
- protocol-summary: In vitro cytotoxicity, Microculture Tetrazolium Assay
- Type: cell-based
- recorded-conditions: Homo sapiens, NCI-H929, 48 h, H929 cells, 48 hours exposure, MTT; read-out: IC50 (μM) MTT H929
The reply should be a number in µM, with the unit left off.

| molecule | IC50 / µM |
| --- | --- |
| COc1c(C)cccc1CC(Oc1ncnc2sc(-c3ccco3)c(-c3ccc(OCCN4CCN(C)CC4)c(Cl)c3C)c12)C(=O)O (stereo not shown) [Example 351] | 0.526 |
| CCCNC(=O)COc1ccccc1CC(Oc1ncnc2sc(-c3ccc(F)o3)c(-c3ccc(OCCN4CCN(C)CC4)c(Cl)c3C)c12)C(=O)O (stereo not shown) [Example 154] | 0.1 |
| Cc1c(-c2c(-c3ccc(F)o3)sc3ncnc(OC(Cc4ccccc4OCc4ccnn4CC(F)(F)F)C(=O)O)c23)ccc(OCCN(C)C)c1Cl (stereo not shown) [Example 205] | 0.028 |
| Cc1c(-c2c(-c3ccc(F)o3)sc3ncnc(OC(Cc4ccccc4OCc4ccnc(C(F)(F)F)c4)C(=O)O)c23)ccc(OCCN2CCN(C)CC2)c1Cl (stereo not shown) [Example 167] | 0.01 |
| CCc1nccc(COc2ccccc2CC(Oc2ncnc3sc(-c4ccc(F)cc4)c(-c4ccc(OCCN5CCN(C)CC5)c(Cl)c4C)c23)C(=O)O)n1 (stereo not shown) [Example 37] | 0.014 |
| COc1ccccc1CC(Oc1ncnc2sc(-c3ccco3)c(-c3ccc(OCCN)c(Cl)c3C)c12)C(=O)O (stereo not shown) [Example 319] | 0.834 |
| Cc1c(-c2c(-c3ccc(F)o3)sc3ncnc(OC(Cc4ccccc4OCc4cnccn4)C(=O)O)c23)ccc(OCCN(C)C)c1Cl (stereo not shown) [Example 206] | 0.135 |
| CC#Cc1sc2ncnc(OC(Cc3ccccc3OCc3ccnc(OC)n3)C(=O)O)c2c1-c1ccc(OCCN2CCN(C)CC2)c(Cl)c1C (stereo not shown) [Example 486] | 0.146 |

get_value(item= Cc1c(-c2c(-c3ccco3)sc3ncnc(OC(Cc4ccccc4OCC4CCO4)C(=O)O)c23)ccc(OCCN2CCN(C)CC2)c1Cl (stereo not shown) [Example 266] , readout=IC50) returns 0.093

The reported value for CCN1CCN(CCOc2ccc(-c3c(-c4ccco4)sc4ncnc(OC(Cc5ccccc5OC)C(=O)O)c34)c(C)c2Cl)CC1 (stereo not shown) [Example 322] in terms of IC50 is 0.113

Entry under test: COc1ccccc1CC(Oc1ncnc2sc(-c3ccccc3Cl)c(-c3ccc(OCCN4CCN(C)CC4)c(Cl)c3C)c12)C(=O)O (stereo not shown) [Example 565] . Its IC50 was 1.96

Kindly note the recorded IC50 for CCCCn1nccc1COc1ccccc1CC(Oc1ncnc2sc(-c3ccc(CC)cc3)c(-c3ccc(OCCN4CCN(C)CC4)c(Cl)c3C)c12)C(=O)O (stereo not shown) [Example 601] , which is 0.133

get_value(item= Cc1c(-c2c(-c3ccc(F)cc3)sc3ncnc(OC(Cc4ccccc4OCc4ccnc(-n5cccn5)n4)C(=O)O)c23)ccc(OCCN2CCN(C)CC2)c1Cl (stereo not shown) [Example 49] , readout=IC50) returns 0.012

---

- test-target: Mcl-1 protein (UniProtKB primary accession number: Q07820) (Homo sapiens, UniProt Q07820)
- Sequence (Q07820 whole entry): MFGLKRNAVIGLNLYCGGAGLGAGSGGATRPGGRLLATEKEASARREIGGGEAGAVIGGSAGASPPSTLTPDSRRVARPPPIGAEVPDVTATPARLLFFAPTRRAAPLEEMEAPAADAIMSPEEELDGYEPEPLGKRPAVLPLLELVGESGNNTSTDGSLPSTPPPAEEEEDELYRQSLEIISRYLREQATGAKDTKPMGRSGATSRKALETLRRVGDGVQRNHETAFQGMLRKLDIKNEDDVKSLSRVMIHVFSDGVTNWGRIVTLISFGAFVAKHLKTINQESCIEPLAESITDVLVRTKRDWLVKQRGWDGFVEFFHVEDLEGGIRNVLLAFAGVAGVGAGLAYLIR
- protocol-summary: Inhibition of Mcl-1 by fluorescence polarisation, Method 1
- Assay type: binding
- recorded-conditions: fluorescence polarisation test; Method 2 values are underlined in the patent (underlining not visible here); read-out: IC50 (M) Mcl-1 FP
quantity-kind: IC50 (M)
Reply with just the number (in M).

| molecule | IC50 [M] |
| --- | --- |
| Cc1cc(COc2ccccc2CC(Oc2ncnc3sc(-c4ccc(F)cc4)c(-c4ccc(OCCN5CCN(C)CC5)c(Cl)c4C)c23)C(=O)O)ccn1 (stereo not drawn) | 5.9e-09 |
| Cc1c(-c2c(-c3ccc(F)cc3)sc3ncnc(OC(Cc4ccccc4OCc4cnccn4)C(=O)O)c23)ccc(OCC2CCN(C)C2)c1Cl (stereo not drawn) [Example 140] | 2.2e-08 |

For record Cc1c(-c2c(-c3ccc(F)o3)sc3ncnc(OC(Cc4ccccc4OCc4ccnc(N5CCOCC5)n4)C(=O)O)c23)ccc(OCCN(C)C)c1Cl (stereo not drawn) the listed IC50 is 3.5e-09

The measured IC50 associated with Cc1c(-c2c(-c3ccc(F)cc3)sc3ncnc(OC(Cc4ccccc4OCc4ccnc(-n5ccnn5)n4)C(=O)O)c23)ccc(OCCN2CCN(C)CC2)c1Cl (stereo not drawn) reads 3.5e-09

IC50 recorded for this molecule, Cc1c(-c2c(-c3ccco3)sc3ncnc(OC(Cc4ccccc4F)C(=O)O)c23)ccc(OCCN2CCN(C)CC2)c1Cl (stereo not drawn) [Example 357] , is 5.5e-07

Measured IC50, Cc1c(-c2c(-c3ccc(F)o3)sc3ncnc(OC(Cc4ccccc4OCC(=O)NC4CCCC4)C(=O)O)c23)ccc(OCCN2CCN(C)CC2)c1Cl (stereo not drawn) : 9.9e-09

---

Below: a set of entries, each annotated with reported IC50.
- test-target: Mcl-1 protein (UniProtKB primary accession number: Q07820) (Homo sapiens, UniProt Q07820)
- protocol-summary: Inhibition of Mcl-1 by fluorescence polarisation, Method 1
- Type: binding
- recorded-conditions: fluorescence polarisation test; Method 2 values are underlined in the patent (underlining not visible here); read-out: IC50 (M) Mcl-1 FP
Number in M, nothing else.

Sample records with IC50:
| molecule | IC50 / M |
| --- | --- |
| Cc1c(-c2c(-c3ccc(F)cc3)sc3ncnc(OC(Cc4ccccc4OCc4ccnc(-c5ccncc5)n4)C(=O)O)c23)ccc(OCCN2CCN(C)CC2)c1Cl (stereo not drawn) [Example 34] | 3.3e-09 |
| Cc1c(-c2c(-c3ccco3)sc3ncnc(OC(Cc4ccccc4O)C(=O)O)c23)ccc(OCCN2CCN(C)CC2)c1Cl (stereo not drawn) [Example 207] | 6.5e-09 |

IC50 reported for this molecule COCCOCCOc1ccccc1CC(Oc1ncnc2sc(-c3ccc(F)cc3)c(-c3ccc(OCCN4CCN(C)CC4)c(Cl)c3C)c12)C(=O)O (stereo not drawn) [Example 105] : 1.2e-08

So, COc1ccccc1CC(Oc1ncnc2sc(-c3ccco3)c(-c3ccc(OCCN(C)C)c(Cl)c3C)c12)C(=O)O (stereo not drawn) [Example 320] ? Its IC50 was 6.5e-09

Notebook: Cc1sccc1-c1nccc(COc2ccccc2CC(Oc2ncnc3sc(-c4ccc(F)cc4)c(-c4ccc(OCCN5CCN(C)CC5)c(Cl)c4C)c23)C(=O)O)n1 (stereo not drawn) [Example 121] , IC50 read as 5.6e-09

// sample COCCNC(=O)COc1ccccc1CC(Oc1ncnc2sc(-c3ccc(F)o3)c(-c3ccc(OCCN4CCN(C)CC4)c(Cl)c3C)c12)C(=O)O (stereo not drawn) [Example 157] , its IC50 was 7e-09

Looking up COc1cc(COc2ccccc2CC(Oc2ncnc3sc(-c4ccc(F)cc4)c(-c4ccc(OCCN5CCN(C)CC5)c(Cl)c4C)c23)C(=O)O)nc(-c2ccccc2)n1 (stereo not drawn) [Example 7] , I see its IC50 listed as 8.6e-09

---

- test-target: Mcl-1 protein (UniProtKB primary accession number: Q07820) (Homo sapiens, UniProt Q07820)
- protocol-summary: Inhibition of Mcl-1 by fluorescence polarisation, Method 1
- Type: binding
- recorded-conditions: fluorescence polarisation test; Method 2 values are underlined in the patent (underlining not visible here); read-out: IC50 (M) Mcl-1 FP
Each entry below lists one item and its recorded IC50 value.
Response body: numeric value in M, unit text excluded.

For reference, reported IC50 for Cc1c(-c2c(-c3ccco3)sc3ncnc(OC(Cc4ccccc4OC4CCN(C)C4)C(=O)O)c23)ccc(OCCN2CCN(C)CC2)c1Cl (stereo not drawn) stands at 9.3e-09

Form field IC50, entry Cc1c(-c2c(-c3ccco3)sc3ncnc(OC(Cc4ccccc4OCc4cnc(N5CCOCC5)nc4)C(=O)O)c23)ccc(OCCN2CCN(C)CC2)c1Cl (stereo not drawn) : 9.2e-09

// field: IC50; key: CCCOc1nccc(COc2ccccc2CC(Oc2ncnc3sc(-c4ccc(F)cc4)c(-c4ccc(OCCN5CCN(C)CC5)c(Cl)c4C)c23)C(=O)O)n1 (stereo not drawn) ; value = 6.7e-09

Just so you know, measured IC50 for Cc1c(-c2c(-c3ccco3)sc3ncnc(OC(Cc4ccccc4OCc4cc(-c5ccccc5)nn4C)C(=O)O)c23)ccc(OCCN2CCN(C)CC2)c1Cl (stereo not drawn) came out at 2e-08

The reported value for COCCNc1nccc(COc2ccccc2CC(Oc2ncnc3sc(-c4ccc(F)cc4)c(-c4ccc(OCCN5CCN(C)CC5)c(Cl)c4C)c23)C(=O)O)n1 (stereo not drawn) in terms of IC50 is 3.4e-09

// sample COc1cnc(COc2ccccc2CC(Oc2ncnc3sc(-c4ccco4)c(-c4ccc(OCCN5CCN(C)CC5)c(Cl)c4C)c23)C(=O)O)cn1 (stereo not drawn) , its IC50 was 1.2e-08
